system: rodent lifetime carcinogenesis bioassay, tumor incidence TD50; assay: carcinogenic potency in animals, long-term in vivo studies, CPDB compilation (AID 1745844); conditions: mouse; strain Charles River CD1; males; in drinking water; site: all sites; lesion: all vascular tumors; dosed 52 weeks; study length 52 weeks
Endpoint Label: TD50

| Smiles Representation | Result |
| --- | --- |
| CN(C)N | 12.6 mg/kg/day |

====

test system: rodent lifetime carcinogenesis bioassay, tumor incidence TD50; assay: carcinogenic potency in animals, long-term in vivo studies, CPDB compilation (AID 1745844); conditions: rat; strain Fischer 344; females; in feed; site: kidney; lesion: tubule adenoma; dosed 40 weeks; study length 66 weeks

| Smiles Representation | Unit Name | TD50 |
| --- | --- | --- |
| Nc1c(Br)cc(Br)c2c1C(=O)c1ccccc1C2=O | mg/kg/day | 418 |

====

test system: rodent lifetime carcinogenesis bioassay, tumor incidence TD50; experiment: carcinogenic potency in animals, long-term in vivo studies, CPDB compilation (AID 1745844); conditions: rat; strain Fischer 344; females; inhaled; site: nasal cavity, olfactory epithelium + nasal cavity, respiratory epithelium; lesion: neuroblastoma + adenoma; dosed 105 weeks; study length 105 weeks
Endpoint Label: TD50 (mg/kg/day)

| Smiles Representation | Numeric Value |
| --- | --- |
| c1ccc2ccccc2c1 | 37.3 |

====

test system: rodent lifetime carcinogenesis bioassay, tumor incidence TD50; experiment: carcinogenic potency in animals, long-term in vivo studies, CPDB compilation (AID 1745844); details: mouse; strain B6C3F1; males; inhaled; site: any site (literature study); lesion: several types; types named in the paper; dosed 104 weeks; study length 104 weeks
The source made the active and inactive calls. How the calls were made is not given here.
Entries annotated with measured TD50

| Molecule | TD50 |
| --- | --- |
| O=[O+][O-] | 0.997 mg/kg/day |
| ClC=CCCl | 229 mg/kg/day |
| C=C(C)C | 8840 mg/kg/day (inactive) |
| CC(O)COC(C)(C)C (stereo not given) | 7930 mg/kg/day |
| C=CC(=C)Cl | 28.4 mg/kg/day |

====

test system: rodent lifetime carcinogenesis bioassay, tumor incidence TD50; assay: carcinogenic potency in animals, long-term in vivo studies, CPDB compilation (AID 1745844); settings: hamster; strain Syrian Golden; males; inhaled; site: liver; lesion: angiosarcoma; dosed 30 weeks; study length 101 weeks
Endpoint Label: TD50 (mg/kg/day)

| Smiles Representation | Numeric Value |
| --- | --- |
| C=CCl | 91800 |

====

test system: rodent lifetime carcinogenesis bioassay, tumor incidence TD50; assay: carcinogenic potency in animals, long-term in vivo studies, CPDB compilation (AID 1745844); conditions: rat; strain Charles River CD (Sprague-Dawley); females; inhaled; site: liver; lesion: hepatocellular carcinoma; dosed 93 weeks; study length 103 weeks
Endpoint Label: TD50 (mg/kg/day)

| Smiles Representation | System Under Test | Numeric Value |
| --- | --- | --- |
| C=CF | rodent lifetime carcinogenesis bioassay, tumor incidence TD50 | 7770 |

====

system: rodent lifetime carcinogenesis bioassay, tumor incidence TD50; test: carcinogenic potency in animals, long-term in vivo studies, CPDB compilation (AID 1745844); settings: rat; strain Fischer 344; females; in feed; site: urinary bladder; lesion: squamous-cell carcinoma; dosed 27 weeks; study length 104 weeks

| Smiles Representation | System Under Test | TD50 |
| --- | --- | --- |
| COc1ccccc1[N+](=O)[O-] | rodent lifetime carcinogenesis bioassay, tumor incidence TD50 | 2700 mg/kg/day |
